All figures here come from the supplement of paper PMC10724198.

# Test system: Saccharomyces cerevisiae
# Assay Method Text: protein stability index of tFT-peptide fusion (C-terminal peptide) (PSI (0-1 scale)); higher = more stable (slower turnover)
# Condition Notes: genetic background: wild type; temperature: 30 C
Measured protein stability index of individual entries
The answer should be written as a number, with no unit following it.

Solved entries (count: 7):
residue_codes="QGQKFIHDNNTN [YMR245W C-terminal 12 aa]" experimental_system="Saccharomyces cerevisiae" assay_value=0.646
residue_codes="SVLVCFLLRRAS [YJR087W C-terminal 12 aa]" experimental_system="Saccharomyces cerevisiae" assay_value=0.342
residue_codes="VPRFKDIFDDLS [DOA1 C-terminal 12 aa]" experimental_system="Saccharomyces cerevisiae" assay_value=0.719
residue_codes="RRSFFSVFRSEK [AKL1 C-terminal 12 aa]" experimental_system="Saccharomyces cerevisiae" assay_value=0.746
residue_codes="DSEDDEDESDDE [SUI2 C-terminal 12 aa]" experimental_system="Saccharomyces cerevisiae" assay_value=0.717
residue_codes="EEARQEKSGQES [CRZ1 C-terminal 12 aa]" experimental_system="Saccharomyces cerevisiae" assay_value=0.659
residue_codes="KKHDWSDISQLW [OSH3 C-terminal 12 aa]" experimental_system="Saccharomyces cerevisiae" assay_value=0.728

As a next step, examine the sequence that follows.
Q: Please report the recorded protein stability index for WYSRKNINSRFE [MTR10 C-terminal 12 aa] .
Ans: 0.712

* * *

# Test system: Saccharomyces cerevisiae
# Assay Method Text: protein stability index of tFT-peptide fusion (C-terminal peptide) (PSI (0-1 scale)); higher = more stable (slower turnover)
# Condition Notes: genetic background: das1 deletion; temperature: 37 C
// label = class 1 if protein stability index is not less than 0.5, otherwise class 0

Sample answers from the record:
residue_codes=FPPCSFLGFLVF experimental_system="Saccharomyces cerevisiae" label="class 1"
residue_codes=FTFPLPPSLLLV experimental_system="Saccharomyces cerevisiae" label="class 0"
residue_codes=KLRMGRYIVRII experimental_system="Saccharomyces cerevisiae" label="class 1"
residue_codes=VVCFVVCGFYLG experimental_system="Saccharomyces cerevisiae" label="class 0"
residue_codes=CFCVSVHVWLLM experimental_system="Saccharomyces cerevisiae" label="class 0"

Q: protein stability index >= 0.5 for IHCLSIVVHGLS ?
Ans: class 1

Q: Please tell me: is the sequence FLFCMIFIFRCF at or over 0.5 in terms of protein stability index?
Ans: class 0

Q: API: above_or_equal(metric=protein stability index, cutoff=0.5) for item PPPPLATTSAPL
Ans: class 1

Q: Please check the record VFFVTSCWVFRG and state if its protein stability index is at or above 0.5.
Ans: class 1

Q: Is it the case that RVHFLIVFLCRF has protein stability index reaching or exceeding 0.5?
Ans: class 1

Q: Reported protein stability index at or above 0.5? WLSFAIECGMVW
Ans: class 0

Q: Determine whether measured protein stability index meets or exceeds 0.5 for DFWMLLFGIIFA
Ans: class 1

Q: Check this sequence for protein stability index at or above 0.5: PYSLYASSSSPL
Ans: class 1

Q: Could you tell me if the measured protein stability index of FLSFARSSCLWF reaches 0.5 or more?
Ans: class 1

Q: Is it the case that GYRFSILSILRV has protein stability index reaching or exceeding 0.5?
Ans: class 1

Q: Quick check, protein stability index >= 0.5? FPLFCRIHLLCS
Ans: class 0
